System name: T1, His-tagged CD47 recombinant protein, CD47-His (human, UniProt Q08722 19-141, limits assumed)
T1 construct: it is not restated for CD47-His; also called human CD47-His protein; antigen CD47-His; not shown: His tag
Assay info: ELISA on coated CD47-His; Ab 0.021 nM
Recorded OD450 nm by entry
# answer = number (no unit)

Field: example entries. Status: answers known.
| Binder | OD450 nm |
| --- | --- |
| 20H4G5 (antibody, V domains shown, Murine hybridoma antibody purified on protein G) VH: QVQLQQPGAELVRPGSSVRLSCVTSGYTFTSHWMHWVKQGPIKGLEWIGNIDPSDSETHYNQKFKDKATLTVDKSSSTAYMQLSRLTSDDSAVYYCARWRHLGIGAMDYWGQGTSVIVSS VL: DVQITQSPSYLAASPGETITINCRASKNISKFLAWYQAKPGKSNNLLIYSGSTLQSGIPSRFSGSGSGTDFTLTISRLEPEDFAMYYCQQHNEYPWTFGGGTKLEIK | 1.15 |
| 25E3B5 (antibody, V domains shown, Murine hybridoma antibody purified on protein G) VH: QVQLQQPGTALVRPGSSVKLSCKASGYTFTSYWMHWVRQRPIKGLEWIGNIDPSDSETHYNQRFKDKVTLTVDKSSNTAYMQLSSLTSEDSAVYYCARWKYHGIGAMDYWGQGTSVTVSS VL: DVQITQSPSYLAASPGETVTISCRTNRNISKFLAWYQEKPGKTNKLLIYSGSTLHSGIPSRFSGSGSGTDFTLTISRLEPEDFAMYYCQQHNEYPWSFGGGTKLEIK | 0.46 |

--- query ---
QUERY: Entry 95E2D10 (antibody, V domains shown, Murine hybridoma antibody purified on protein G) VH: QIQLQQSGPELVKPGASMKISCKASGYPFTDYYIHWVKQKPGQGLEWIGWIYPGSGNNKYNEKFKGKATLTVDTSPSTVYMQLSSLTSEDTAVYFCARRAGNYFDYWGQGTTLTVSS VL: NIVMTQSPKSMSRSVGERVTLSCRASENVRTYVFWYQQKPGLSPKLLIYGASNRYIGVPDRFTGSGSATDFTLTISSVQAEDLADYHCGQSYSYPLTFGAGTKLELK has what OD450 nm?
RESULT: 0.58
